# Tested System: B1-AR (Homo sapiens)
# Construct: expressed in transfected cells; host or cells: CHO-K1
# Sequence (P08588 whole entry, species assumed): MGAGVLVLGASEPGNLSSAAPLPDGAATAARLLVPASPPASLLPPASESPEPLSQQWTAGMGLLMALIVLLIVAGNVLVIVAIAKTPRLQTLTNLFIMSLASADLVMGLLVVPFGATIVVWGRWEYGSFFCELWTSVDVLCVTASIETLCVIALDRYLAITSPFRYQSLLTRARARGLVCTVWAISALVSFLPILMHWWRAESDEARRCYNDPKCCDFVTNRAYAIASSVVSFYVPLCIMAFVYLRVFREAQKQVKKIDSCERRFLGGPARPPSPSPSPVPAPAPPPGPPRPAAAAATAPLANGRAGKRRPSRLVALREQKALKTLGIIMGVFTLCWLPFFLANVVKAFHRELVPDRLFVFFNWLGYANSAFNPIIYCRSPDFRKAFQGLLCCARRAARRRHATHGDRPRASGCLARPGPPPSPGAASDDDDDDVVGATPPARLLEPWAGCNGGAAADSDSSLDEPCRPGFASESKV
# Test Description: cAMP Gs dynamic HTRF assay, cells expressing beta-adrenergic receptor (CHO-K1), B1-AR
# Type: cell-based
# Condition Set: cAMP HTRF, read-out: pEC50 [B1-AR] (converted)
Please respond with reported EC50 for every item in the list.

Observe how each entry below is paired with its result.
CCC(C)(C)NC[C@H](O)c1ccc(Cl)c2[nH]ncc12 [I-49]
< 0.01 µM
COc1ccc(C[C@@H](C)NC[C@H](O)c2cccc3[nH]nc(F)c23)cc1 [I-18]
< 0.01 µM
CC1(CNC[C@H](O)c2ccc(F)c3[nH]ncc23)CC1 [I-81]
0.01 to 0.1 µM
CC(C)[C@@H](C)NC[C@H](O)c1ccc(F)c2[nH]ncc12 [I-31]
0.01 to 0.1 µM
CC(C)CNC[C@H](O)c1cccc2[nH]cc(F)c12 [I-111]
0.01 to 0.1 µM

Below are some compounds; for each one, tell me its EC50.
1. CC(C)C(C)(C)NC[C@H](O)c1ccc(F)c2[nH]ncc12 [I-22]
2. Cc1n[nH]c2cccc([C@@H](O)CNC3(C)CC3)c12 [I-169]

1: 0.01 to 0.1 µM; 2: 0.1 to 1 µM
